Molecular target: APOL1 G2 (Homo sapiens, UniProt O14791, DEL388-389)
Construct: expressed in transfected cells; host or cells: HEK293 T-REx clonal line stably expressing GCaMP6f (HEK T-REx/GCaMP6f/APOL1 G2 K6.3), doxycycline induced
Sequence (O14791 with tags, fused parts or gaps DEL388-389): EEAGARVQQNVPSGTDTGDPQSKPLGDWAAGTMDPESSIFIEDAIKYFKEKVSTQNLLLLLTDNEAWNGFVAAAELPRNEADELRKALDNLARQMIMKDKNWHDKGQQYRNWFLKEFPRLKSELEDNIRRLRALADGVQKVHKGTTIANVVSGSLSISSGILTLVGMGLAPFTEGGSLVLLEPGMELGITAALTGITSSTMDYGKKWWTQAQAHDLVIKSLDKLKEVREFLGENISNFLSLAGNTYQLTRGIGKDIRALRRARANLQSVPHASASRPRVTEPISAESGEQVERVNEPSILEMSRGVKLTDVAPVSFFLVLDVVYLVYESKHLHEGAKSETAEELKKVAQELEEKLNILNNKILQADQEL
Experiment: APOL1-mediated calcium transport (calcium influx) assay, HEK T-REx/GCaMP6f/APOL1 G2 K6.3 cells, FLIPR TETRA
Assay type: cell-based
Details: prevention of calcium influx; geometric mean of at least 2 assay runs; † = average of a technical replicate from a single assay run
Description: A HEK293 clonal cell line was generated to stably express GCaMP6f, a genetically encoded calcium indicator, and inducibly express APOL1 G2 (HEK T-REx/GCaMP6f/APOL1 G2 K6.3). […]

>  <Compound>
[2H]C([2H])(Oc1cnc2c(c1)CCC(=O)N2[C@H]1C[C@@](C)(O)C1)C([2H])([2H])N1CCC2(CC1)C(=O)Nc1ccc(Cl)cc12

>  <Assay System>
APOL1 G2 (Homo sapiens, UniProt O14791, DEL388-389)

>  <AC50 / nM>
597

$$$$
>  <Compound>
C[C@@H](COc1ccc(S(C)(=O)=O)c(C(F)F)c1)N1CCC2(CC1)C(=O)Nc1ccc(Cl)cc12 (single isomer, unassigned)

>  <Assay System>
APOL1 G2 (Homo sapiens, UniProt O14791, DEL388-389)

>  <AC50 / nM>
1540

$$$$
>  <Compound>
CC1(Oc2ncc(OCCN3CCC4(CC3)C(=O)Nc3ccc(C#N)cc34)cn2)COC1

>  <Assay System>
APOL1 G2 (Homo sapiens, UniProt O14791, DEL388-389)

>  <AC50 / nM>
908

$$$$
>  <Compound>
CS(=O)(=O)c1ccc(OCCN2CCC3(CC2)C(=O)N(CCO)c2ccc(Cl)cc23)cc1C(F)F

>  <Assay System>
APOL1 G2 (Homo sapiens, UniProt O14791, DEL388-389)

>  <AC50 / nM>
697

$$$$
>  <Compound>
CC(COc1ccc2c(c1)CCC(=O)N2C)N1CCC2(CC1)C(=O)Nc1ccc(Cl)cc12 (single isomer, unassigned) [Compound 200]

>  <Assay System>
APOL1 G2 (Homo sapiens, UniProt O14791, DEL388-389)

>  <AC50 / nM>
1200

$$$$
>  <Compound>
CS(=O)(=O)c1ccc(OCCN2CCC3(CC2)C(=O)Nc2ccc(Cl)cc23)cn1

>  <Assay System>
APOL1 G2 (Homo sapiens, UniProt O14791, DEL388-389)

>  <AC50 / nM>
455

$$$$
>  <Compound>
CS(=O)(=O)C1(c2ccc(OCCN3CCC4(CC3)C(=O)Nc3ccc(C#N)cc34)cc2)CCC1

>  <Assay System>
APOL1 G2 (Homo sapiens, UniProt O14791, DEL388-389)

>  <AC50 / nM>
656

$$$$
>  <Compound>
CS(=O)(=O)C1(c2ncc(OCCN3CCC4(CC3)C(=O)Nc3ccc(Cl)cc34)cn2)CC1

>  <Assay System>
APOL1 G2 (Homo sapiens, UniProt O14791, DEL388-389)

>  <AC50 / nM>
670

$$$$
>  <Compound>
CS(=O)(=O)N(CCO)c1ccc(OCCN2CCC3(CC2)C(=O)Nc2ccc(Cl)cc23)cc1

>  <Assay System>
APOL1 G2 (Homo sapiens, UniProt O14791, DEL388-389)

>  <AC50 / nM>
600

$$$$
>  <Compound>
CS(=O)(=O)Nc1ccc(OCCN2CCC3(CC2)C(=O)Nc2ccc(Cl)cc23)cc1

>  <Assay System>
APOL1 G2 (Homo sapiens, UniProt O14791, DEL388-389)

>  <AC50 / nM>
355

$$$$
>  <Compound>
CC(C)(C(N)=O)c1ccc(OCCN2CCC3(CC2)C(=O)Nc2ccc(C#N)cc23)cc1

>  <Assay System>
APOL1 G2 (Homo sapiens, UniProt O14791, DEL388-389)

>  <AC50 / nM>
974

$$$$
>  <Compound>
[2H]C([2H])([2H])N1C(=O)C2(CCN(CCOc3ccc(C4CCN(S(C)(=O)=O)CC4)cc3)CC2)c2cc(Cl)ccc21

>  <Assay System>
APOL1 G2 (Homo sapiens, UniProt O14791, DEL388-389)

>  <AC50 / nM>
2900

$$$$
>  <Compound>
NC(=O)c1ccc(OCCN2CCC3(CC2)C(=O)Nc2ccc(Cl)cc23)cc1F

>  <Assay System>
APOL1 G2 (Homo sapiens, UniProt O14791, DEL388-389)

>  <AC50 / nM>
434

$$$$
>  <Compound>
O=C1CCc2cc(OCCN3CCC4(CC3)C(=O)Nc3ccc(Cl)cc34)cnc2N1CCO

>  <Assay System>
APOL1 G2 (Homo sapiens, UniProt O14791, DEL388-389)

>  <AC50 / nM>
291

$$$$
>  <Compound>
C[C@]1(O)C[C@@H](N2C(=O)CCc3cc(OCCN4CCC5(CC4)C(=O)Nc4ccc(OC(F)F)cc45)cnc32)C1

>  <Assay System>
APOL1 G2 (Homo sapiens, UniProt O14791, DEL388-389)

>  <AC50 / nM>
791

$$$$
>  <Compound>
CS(=O)(=O)C1(c2ccc(OCCN3CCC4(CC3)C(=O)Nc3ccc(Cl)cc34)cc2)COC1

>  <Assay System>
APOL1 G2 (Homo sapiens, UniProt O14791, DEL388-389)

>  <AC50 / nM>
604

$$$$
>  <Compound>
CC(=O)N(C)CCS(=O)(=O)c1ccc(OCCN2CCC3(CC2)C(=O)Nc2ccc(Cl)cc23)cc1

>  <Assay System>
APOL1 G2 (Homo sapiens, UniProt O14791, DEL388-389)

>  <AC50 / nM>
1270

$$$$
>  <Compound>
CC(O)c1ncc(OCCN2CCC3(CC2)C(=O)Nc2ccc(Cl)cc23)cn1 (single isomer, unassigned) [Compound 285]

>  <Assay System>
APOL1 G2 (Homo sapiens, UniProt O14791, DEL388-389)

>  <AC50 / nM>
714

$$$$
>  <Compound>
CS(=O)(=O)c1ccc(OCCN2CCC3(CC2)C(=O)Nc2ccc(Cl)cc23)cc1Cl

>  <Assay System>
APOL1 G2 (Homo sapiens, UniProt O14791, DEL388-389)

>  <AC50 / nM>
452

$$$$
>  <Compound>
CN1C(=O)C2(CCN(CCOc3ccc4ncn(C)c(=O)c4c3)CC2)c2ccccc21

>  <Assay System>
APOL1 G2 (Homo sapiens, UniProt O14791, DEL388-389)

>  <AC50 / nM>
586

$$$$
>  <Compound>
CN1C(=O)CCc2cc(OCCN3CCC4(CC3)C(=O)Nc3ccc(C#N)cc34)cnc21

>  <Assay System>
APOL1 G2 (Homo sapiens, UniProt O14791, DEL388-389)

>  <AC50 / nM>
687

$$$$
>  <Compound>
O=C1Nc2ccc(Cl)cc2C12CCN(CCOc1ccc(S(=O)(=O)C3(CO)CC3)cc1)CC2

>  <Assay System>
APOL1 G2 (Homo sapiens, UniProt O14791, DEL388-389)

>  <AC50 / nM>
847

$$$$
>  <Compound>
CC(c1c(F)cc(OCCN2CCC3(CC2)C(=O)Nc2ccc(C#N)cc23)cc1F)S(C)(=O)=O (single isomer, unassigned) [Compound 139]

>  <Assay System>
APOL1 G2 (Homo sapiens, UniProt O14791, DEL388-389)

>  <AC50 / nM>
1120

$$$$
>  <Compound>
O=C1CCc2cc(OCCN3CCC4(CC3)C(=O)Nc3ccc(Cl)cc34)ccc2N1CC(F)F

>  <Assay System>
APOL1 G2 (Homo sapiens, UniProt O14791, DEL388-389)

>  <AC50 / nM>
756

$$$$
